Kd values by entry
Molecular target: T1, PIK3R1 N-terminal SH2 domain (human)
T1 construct: PIK3R1, human; source: bacterial expression, purified
Assay: fluorescence polarisation; saturation binding in solution: rhodamine peptide fixed at 10 nM, protein titrated 0.002-10 uM, 20 min at room temperature; assay buffer 20 mM HEPES, 100 mM KCl, 0.1% Tween-20, 5 mM DTT, pH 7.8; apparent KD
Settings: both partners purified
Non-standard residues stand in square brackets, D forms with d. No end group written: not given here. pY = N[C@@H](Cc1ccc(OP(=O)(O)O)cc1)C(=O)O; Rhodamine = not defined here

>  <binder>
Rhodamine-QEAN[pY]VPMTPGTD (reading uncertain) [Gab1 pY472 phosphopeptide, rhodamine-labelled]

>  <Kd (µM)>
2.33

$$$$
>  <binder>
Rhodamine-DPQD[pY]LLLINCQD (reading uncertain) [Gab1 pY183 phosphopeptide, rhodamine-labelled]

>  <Kd (µM)>
4.26

$$$$

Just for reference, paper PMC3433420 is where these values come from.
